test_protocol: JC-1 mitochondrial signal, unstimulated HepG2 cells – cell-based, JC-1 fluorescence, 24 h, 100 nL compound, profiling panel (AID 1167); also: test concentration not given here
test_parameters: HepG2 mitochondrial potential, higher = more signal
value_kind: z-score
In your answer, state the number alone without any accompanying words.

Cc1ccc(F)cc1S(=O)(=O)N[C@@H]1CCN(C(=O)c2ccc(OC(C)C)cc2)C1: -0.14
COC(=O)[C@@]1(Cc2ccccc2)[C@H]2c3cc(C(=O)N(C)C)n(Cc4ccccn4)c3C[C@H]2CN1C(=O)c1ccccc1: 0.428
O=C1O[C@H](c2ccccc2)[C@H](c2ccccc2)N2[C@H]1[C@@H](C(=O)N1CCCCCCC1)[C@]1(C(=O)Nc3ccccc31)[C@H]2c1ccc(O)cc1: -1.65
CCCC=C(CCC)[C@@H](NS(=O)(=O)CC)c1ccccc1: -2.68

What value of z-score has been reported for the following compound? C=C[C@H](C)[C@H](OC(=O)Nc1ccc(SC)cc1)c1ccc(O)c2ccccc12 -3.16

// same read-out, input: COCCOC(=O)N1C(=O)[C@@]2(c3cc(C#Cc4ccc(OC)cc4)ccc31)[C@H](C(=O)N1CCc3cc(OC)c(OC)cc3C1)[C@H]1C(=O)O[C@H](c3ccccc3)[C@H](c3ccccc3)N1[C@@H]2c1ccc(O)cc1 -0.177

// repeat for CCCC=C(CCC)[C@@H](NC(=O)Cc1ccccc1)c1ccc(C(=O)OC)cc1 and report -1.59

Now consider C#CCOC(=O)N[C@H](C=CCCCC)c1ccccc1 and answer again. 1.47

// same read-out, input: O=C1CSC(c2cccc([N+](=O)[O-])c2)N1c1ccccc1 (centres undefined) 1.04
